The compounds listed here are annotated with their pIC50.
target: Human immunodeficiency virus type 1 reverse transcriptase (Human immunodeficiency virus 1, UniProt Q72547)
pIC50: −log10 of the molar value.

// below: answered compounds
LINE_NOTATION	pIC50
Fc1cccc(-c2ccccc2)c1Nc1nc(Cl)nc(NCc2ccc3occc3c2)n1	< 4.00
CC(C)(Nc1nc(O)nc(Nc2c(F)cccc2-c2ccccc2)n1)c1ccc2c(c1)OCO2	< 4.00

Proceeding to the next compound to report its pIC50.
Could you share which pIC50 value was measured for Cc1cccc(-c2ccccc2)c1Nc1nc(O)nc(OCc2ccc3occc3c2)n1 ?
4.63

###

molecular target: Human immunodeficiency virus type 1 reverse transcriptase (Human immunodeficiency virus 1, UniProt Q72547, Y188L); assay: Inhibition of HIV1 reverse transcriptase Y188L mutant
The compounds listed here are annotated with their IC50.
Numbers only; they are read as µM.

LINE_NOTATION	UNIT_STRING	IC50
CN(Cc1ccc2occc2c1)c1nc(O)nc(Nc2c(F)cccc2-c2ccccc2)n1	µM	6.1

Proceeding to the next compound to report its IC50.
Could you share which IC50 value was measured for Cc1cccc(-c2ccccc2)c1Nc1nc(O)nc(N(C)Cc2ccc3c(c2)CCO3)n1 ?
9.5

###

The compounds listed here are annotated with their IC50.
target: Human immunodeficiency virus type 1 reverse transcriptase (Human immunodeficiency virus 1, UniProt Q72547, V106A); test: Inhibition of HIV1 reverse transcriptase V106A mutant
Numbers only; they are read as µM.

Could you share which IC50 value was measured for Cc1cccc(-c2ccccc2)c1Nc1nc(O)nc(N(C)Cc2ccc3c(c2)CCO3)n1 ?
36.7

Lookup CN(Cc1ccc2occc2c1)c1nc(O)nc(Nc2c(F)cccc2-c2ccccc2)n1
9.1

###

The compounds listed here are annotated with their AUC.
assay: AUC in rat at 4 mg/kg, po or 2 mg/kg, iv; format: ADME, organism-based; conditions: plasma
Numbers only; they are read as µM·h.

LINE_NOTATION	UNIT_STRING	AUC
Cc1cccc(-c2ccccc2)c1Nc1nc(O)nc(N(C)Cc2ccc3c(c2)CCO3)n1	µM·h	15.6

Could you share which AUC value was measured for CN(Cc1ccc2occc2c1)c1nc(O)nc(Nc2c(F)cccc2-c2ccccc2)n1 ?
12.5

###

molecular target: Human immunodeficiency virus type 1 reverse transcriptase (Human immunodeficiency virus 1, UniProt Q72547)
IC50 vs 500 nM: less than gives Condition met; not less than gives Condition not met.

Past entries and their recorded results:
LINE_NOTATION	CLASS_ASSIGNMENT
Cc1cccc(-c2ccoc2)c1Nc1nc(O)nc(N(C)Cc2ccc3occc3c2)n1	Condition met
Cc1cccc(-c2ccccc2)c1Nc1nc(O)nc(N(C)Cc2ccc3c(c2)OCO3)n1	Condition met
CN(Cc1ccc2occc2c1)c1nc(O)nc(Nc2ccccc2N2CCOCC2)n1	Condition not met
Oc1nc(NCc2ccc3occc3c2)nc(Nc2c(F)cccc2-c2ccccc2)n1	Condition met

Consider COc1nc(NCc2ccc3occc3c2)nc(Nc2c(C)cccc2-c2ccccc2)n1 . Does its IC50 lie strictly below 500 nM?
Condition not met

Lookup Cc1cccc(-c2ccccc2)c1Nc1nc(O)nc(NCc2ccc3c(ccn3S(C)(=O)=O)c2)n1
Condition not met

Lookup Cc1cccc(-c2ccccc2)c1Nc1nc(O)nc(N(C)Cc2ccc3c(c2)CCO3)n1
Condition met

Lookup Cc1cccc(-c2ccccc2)c1Nc1nc(O)nc(N(C)Cc2ccc3occc3c2)n1
Condition met

Lookup Oc1nc(NCc2ccc3cc[nH]c3c2)nc(Nc2ccccc2-c2ccccc2)n1
Condition not met

###

The compounds listed here are annotated with their Vd.
experiment: Volume of distribution at steady state in rat at 4 mg/kg, po or 2 mg/kg, iv; format: ADME, organism-based; details: in vivo, read-out: Vdss
Numbers only; they are read as L/kg.

LINE_NOTATION	PROPERTY	VALUE
Cc1cccc(-c2ccccc2)c1Nc1nc(O)nc(N(C)Cc2ccc3c(c2)CCO3)n1	Vd	0.32

Could you share which Vd value was measured for CN(Cc1ccc2occc2c1)c1nc(O)nc(Nc2c(F)cccc2-c2ccccc2)n1 ?
0.35

###

The compounds listed here are annotated with their IC50.
target: Human immunodeficiency virus type 1 reverse transcriptase (Human immunodeficiency virus 1, UniProt Q72547, L100I); assay: Inhibition of HIV1 reverse transcriptase L100I mutant
Numbers only; they are read as nM.

Could you share which IC50 value was measured for Cc1cccc(-c2ccccc2)c1Nc1nc(O)nc(N(C)Cc2ccc3c(c2)CCO3)n1 ?
70

Lookup CN(Cc1ccc2occc2c1)c1nc(O)nc(Nc2c(F)cccc2-c2ccccc2)n1
47

###

The compounds listed here are annotated with their pIC50.
target: Human immunodeficiency virus type 1 reverse transcriptase (Human immunodeficiency virus 1, UniProt Q72547)
Notebook: values listed as pIC50 are -log10 of the concentration (mol/L).

// below: answered compounds
LINE_NOTATION	VALUE
Cc1cccc(-c2ccccc2)c1Nc1nc(O)nc(NCc2ccc3occc3c2)n1	7.15
CN(Cc1ccc2occc2c1)c1nc(O)nc(Nc2c(F)cccc2-c2ccccc2)n1	8.10
Oc1nc(NCc2ccc3cc[nH]c3c2)nc(Nc2cccc(Br)c2)n1	4.40
Cc1cccc(-c2ccccc2)c1N(C)c1nc(O)nc(NCc2ccc3occc3c2)n1	5.29
CN(Cc1ccc2occc2c1)c1nc(O)nc(Nc2c(F)cc(F)cc2-c2ccccc2)n1	7.15

Could you share which pIC50 value was measured for Cc1cccc(-c2ccccc2)c1Nc1nc(O)nc(NCc2ccc3c(c2)OCCCO3)n1 ?
5.36

Lookup Cc1cccc(-c2ccccc2)c1Oc1nc(O)nc(NCc2ccc3occc3c2)n1
5.01

###

The compounds listed here are annotated with their half-life.
assay: Half life in rat at 2 mg/kg, iv; format: ADME, organism-based; set-up: dose 2 mg/kg, route intravenous; conditions: in vivo
Numbers only; they are read as h.

LINE_NOTATION	UNIT_STRING	half-life
Cc1cccc(-c2ccccc2)c1Nc1nc(O)nc(N(C)Cc2ccc3c(c2)CCO3)n1	h	1.4

Proceeding to the next compound to report its half-life.
Could you share which half-life value was measured for CN(Cc1ccc2occc2c1)c1nc(O)nc(Nc2c(F)cccc2-c2ccccc2)n1 ?
1.45

###

assay: Cmax in rat at 4 mg/kg, po; format: ADME, organism-based; design: dose 4 mg/kg, route oral; settings: in vivo
PROPERTY: Cmax (µM)
Numbers only; they are read as µM.

LINE_NOTATION	Cmax (µM)
Cc1cccc(-c2ccccc2)c1Nc1nc(O)nc(N(C)Cc2ccc3c(c2)CCO3)n1	6.1

Proceeding to the next compound to report its Cmax.
Could you share which Cmax value was measured for CN(Cc1ccc2occc2c1)c1nc(O)nc(Nc2c(F)cccc2-c2ccccc2)n1 ?
3.8

###

experiment: Oral bioavailability in rat at 4 mg/kg, po; type: ADME, organism-based; conditions: in vivo
The compounds listed here are annotated with their bioavailability.
Numbers only; they are read as %.

LINE_NOTATION	bioavailability (%)
Cc1cccc(-c2ccccc2)c1Nc1nc(O)nc(N(C)Cc2ccc3c(c2)CCO3)n1	44

Proceeding to the next compound to report its bioavailability.
Could you share which bioavailability value was measured for CN(Cc1ccc2occc2c1)c1nc(O)nc(Nc2c(F)cccc2-c2ccccc2)n1 ?
38

###

The compounds listed here are annotated with their IC50.
target: Human immunodeficiency virus type 1 reverse transcriptase (Human immunodeficiency virus 1, UniProt Q72547)

LINE_NOTATION	VALUE
CCN(Cc1ccc2occc2c1)c1nc(O)nc(Nc2c(F)cccc2-c2ccccc2)n1	> 100 µM

Could you share which IC50 value was measured for Cc1cccc(-c2ccccc2)c1Oc1nc(N)nc(NCc2ccc3occc3c2)n1 ?
> 100 µM

Lookup Oc1nc(NCc2ccc3cc[nH]c3c2)nc(Nc2cccc(Oc3ccccc3)c2)n1
> 100 µM
